Target: Serine/threonine-protein kinase Nek1 (Homo sapiens) (UniProt Q96PY6);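 note: mean percent inhibition of NEK1 kinase, from the GSK PKIS (published kinase inhibitor set) screening panel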
Sequence (whole entry): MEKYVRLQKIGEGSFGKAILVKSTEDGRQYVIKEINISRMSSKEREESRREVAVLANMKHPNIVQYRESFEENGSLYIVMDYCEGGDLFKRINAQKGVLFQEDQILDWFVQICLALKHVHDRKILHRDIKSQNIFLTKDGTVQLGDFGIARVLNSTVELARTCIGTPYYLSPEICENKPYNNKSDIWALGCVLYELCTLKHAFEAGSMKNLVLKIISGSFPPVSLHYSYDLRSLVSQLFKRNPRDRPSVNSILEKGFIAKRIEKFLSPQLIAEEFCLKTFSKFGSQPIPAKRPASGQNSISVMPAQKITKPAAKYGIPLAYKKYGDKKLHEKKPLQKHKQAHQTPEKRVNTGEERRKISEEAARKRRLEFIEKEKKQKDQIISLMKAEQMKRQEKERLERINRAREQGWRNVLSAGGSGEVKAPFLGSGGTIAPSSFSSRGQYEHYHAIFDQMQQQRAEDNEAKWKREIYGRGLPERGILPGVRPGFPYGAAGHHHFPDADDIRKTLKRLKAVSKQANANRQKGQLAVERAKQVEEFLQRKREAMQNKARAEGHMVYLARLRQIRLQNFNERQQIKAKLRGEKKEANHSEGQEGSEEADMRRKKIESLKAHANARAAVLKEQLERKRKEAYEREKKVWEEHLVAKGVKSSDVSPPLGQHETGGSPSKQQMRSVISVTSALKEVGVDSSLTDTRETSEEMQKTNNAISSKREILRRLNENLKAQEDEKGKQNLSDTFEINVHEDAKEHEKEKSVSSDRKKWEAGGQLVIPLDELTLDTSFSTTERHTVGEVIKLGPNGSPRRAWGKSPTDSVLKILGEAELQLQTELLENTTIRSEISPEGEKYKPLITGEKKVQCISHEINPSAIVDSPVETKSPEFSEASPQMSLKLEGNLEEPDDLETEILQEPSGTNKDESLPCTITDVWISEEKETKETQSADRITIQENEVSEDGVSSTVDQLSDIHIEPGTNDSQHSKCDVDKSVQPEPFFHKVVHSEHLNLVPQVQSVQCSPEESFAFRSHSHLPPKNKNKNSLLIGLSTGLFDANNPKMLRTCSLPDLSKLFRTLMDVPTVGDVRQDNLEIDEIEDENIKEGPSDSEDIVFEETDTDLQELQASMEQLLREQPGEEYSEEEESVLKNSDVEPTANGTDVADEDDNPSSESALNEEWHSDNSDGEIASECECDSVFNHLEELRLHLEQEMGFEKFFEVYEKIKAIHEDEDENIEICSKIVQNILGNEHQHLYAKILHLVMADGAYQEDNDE
Settings: at 0.1 µM
Measured inhibition values are reported for all entries that follow.
Measured parameter: inhibition (%)

>  <Mol smiles>
NS(=O)(=O)c1ccc(Nc2cc(-c3ccc(O)c(F)c3)n[nH]2)cc1

>  <Measured parameter>
inhibition

>  <Unit abbrev>
%

>  <Numeric result>
-0.93

$$$$
>  <Mol smiles>
C[C@@H](Oc1cc(-n2cnc3ccc(OCC4CCN(C)CC4)cc32)sc1C(N)=O)c1ccccc1Cl

>  <Measured parameter>
inhibition

>  <Unit abbrev>
%

>  <Numeric result>
17.6

$$$$
>  <Mol smiles>
O=C(Nc1n[nH]c2cc(-c3ccccc3)ccc12)C1CC1

>  <Measured parameter>
inhibition

>  <Unit abbrev>
%

>  <Numeric result>
1.53

$$$$
>  <Mol smiles>
O=C1NC(=O)C(c2cccc(Cl)c2)=C1Nc1ccc(Cl)c(C(=O)O)c1

>  <Measured parameter>
inhibition

>  <Unit abbrev>
%

>  <Numeric result>
2.39

$$$$
>  <Mol smiles>
CS(=O)(=O)CCNCc1cc(-c2cc3c(Nc4ccc(OCc5cccc(F)c5)c(Cl)c4)ncnc3s2)cs1

>  <Measured parameter>
inhibition

>  <Unit abbrev>
%

>  <Numeric result>
3.08

$$$$
>  <Mol smiles>
O=C(Nc1n[nH]c2nc(-c3ccco3)ccc12)C1CC1

>  <Measured parameter>
inhibition

>  <Unit abbrev>
%

>  <Numeric result>
1.33

$$$$
>  <Mol smiles>
Cc1ccc(C(=O)NC(C)C)cc1-c1ccc(C(=O)NCC2CC2)cc1

>  <Measured parameter>
inhibition

>  <Unit abbrev>
%

>  <Numeric result>
-1.29

$$$$
>  <Mol smiles>
NC(=O)c1cc(-c2ccncc2)cc(-c2ccccc2)c1N

>  <Measured parameter>
inhibition

>  <Unit abbrev>
%

>  <Numeric result>
3.64

$$$$
>  <Mol smiles>
Fc1ccc(-c2c(-c3ccncc3)nc3n2CCS3)cc1

>  <Measured parameter>
inhibition

>  <Unit abbrev>
%

>  <Numeric result>
2.32

$$$$
>  <Mol smiles>
COc1cc(Nc2ncc3c(C)nc(-c4cccc(Oc5ccccc5)c4)n3n2)cc(OC)c1OC

>  <Measured parameter>
inhibition

>  <Unit abbrev>
%

>  <Numeric result>
2.64

$$$$
>  <Mol smiles>
Cc1ccc(C(=O)NC2CCC2)cc1-c1ccc(C(=O)NCC2CC2)cc1

>  <Measured parameter>
inhibition

>  <Unit abbrev>
%

>  <Numeric result>
0.93

$$$$
>  <Mol smiles>
CCc1cccc(CC)c1/C=C/c1cncc(C(=O)NC)c1

>  <Measured parameter>
inhibition

>  <Unit abbrev>
%

>  <Numeric result>
1.27

$$$$
>  <Mol smiles>
c1ccc(-c2n[nH]cc2-c2ccnc(-c3ccc(OCCN4CCOCC4)cc3)c2)nc1

>  <Measured parameter>
inhibition

>  <Unit abbrev>
%

>  <Numeric result>
1.71

$$$$
